test system: Bovine cardiac myofibrils; assay: In vitro model of dose-dependent myofibril ATPase modulation (AC1.4, pyruvate kinase/lactate dehydrogenase-coupled ATPase assay at pCa25); assay type: biochemical; settings: concentration at which ATPase activity was 1.4-fold higher than the bottom of the dose curve, mean of a minimum of two independent tests
Readout Name: AC1.4 (µM)

Compound	AC1.4 (µM)
N#CC1CN(S(=O)(=O)N2CCC[C@H](C(=O)N3CCC[C@@H]3C(=O)N[C@H](CCO)c3ccc(C(F)(F)F)cc3)C2)C1 [Example 36]	0.03765
N#CC1CN(S(=O)(=O)N2CCC[C@H](C(=O)N3CCC[C@@H]3C(=O)N[C@@H](c3ccc(C(F)(F)F)cc3)C3CC3)C2)C1 [Example 11]	0.0215
O=C(N[C@@H](c1ccc(C(F)(F)F)c(F)c1)C1CC1)[C@H]1C[C@H]2C[C@H]2N1C(=O)c1cccc(S(=O)(=O)C2CC2)c1 [Example 310]	0.8061
O=C(NCc1ccc(C(F)(F)F)cc1)[C@H]1CCCN1C(=O)[C@H]1CCCN(S(=O)(=O)N2CC(C3CCC3)C2)C1 [Example 483]	2.168
O=C(NCc1ccc(C(F)(F)F)cc1)[C@H]1CCCN1C(=O)[C@H]1CCCN(S(=O)(=O)N2CCC2c2ccccc2F)C1 (stereo partly shown) [Example 302]	0.7944

(A) CS(=O)(=O)c1cccc(C(=O)N2CCCC[C@@H]2C(=O)N[C@@H](c2ccc(C(F)(F)F)cc2F)C2CC2)c1 [Example 253]
(B) N#CC1CN(S(=O)(=O)N2CCC[C@H](C(=O)N3CCC[C@@H]3C(=O)NCc3cccc(F)c3)C2)C1 [Example 496]
Smaller AC1.4 value, A vs B ? Please reply using the label of the selected record. A
